B1: MATN2 (parent)
chain: FIVDILQFLDIGPDVTRVGLLQYG

# Variants of: B1
# ASSAY INFO: protein stability index of a GFP-peptide fusion (GPS, HEK-293T) (PSI 1-6); higher = more stable;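 also: lentivirally expressed fusions sorted by FACS into six bins by GFP to DsRed ratio, PSI derived from sequencing read proportions per bin multiplied by bin number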
# DETAILS: c terminus: a fixed tail appended
Consider the following variants; for each one, report its protein stability index.
Answers are plain numbers.

- MUTANT: "L20R"
  protein stability index: 1.79
- MUTANT: "I5N"
  protein stability index: 2.12
- MUTANT: "Q22K"
  protein stability index: 2.98

Hi team, please reply with protein stability index for each item in this list.
1. G19Q
2. Q22S
3. D4C
4. G24H
5. I11G
6. I5F

[2.7, 3.08, 2.67, 3.37, 3.02, 3.88]

Hi team, please reply with protein stability index for each item in this list.
1. G24F
2. L21F
3. L20C
4. V15W

1: 3.31; 2: 2.62; 3: 1.87; 4: 2.06
